Data provenance is patent US7741341B2.

Ki data for UniProt P00742 follow.
Sequence (P00742 235-488 limits assumed): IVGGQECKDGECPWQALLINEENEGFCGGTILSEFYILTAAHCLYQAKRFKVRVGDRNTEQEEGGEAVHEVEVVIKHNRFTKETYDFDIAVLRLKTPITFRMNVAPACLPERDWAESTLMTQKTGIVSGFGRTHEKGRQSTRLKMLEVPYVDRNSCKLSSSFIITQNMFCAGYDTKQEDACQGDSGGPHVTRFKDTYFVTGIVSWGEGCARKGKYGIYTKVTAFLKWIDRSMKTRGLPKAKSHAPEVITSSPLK
Sequence (P00742 41-179 partner limits assumed): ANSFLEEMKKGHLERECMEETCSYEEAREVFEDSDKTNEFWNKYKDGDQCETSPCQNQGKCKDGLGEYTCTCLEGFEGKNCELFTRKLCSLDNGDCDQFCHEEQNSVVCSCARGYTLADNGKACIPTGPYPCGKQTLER
observable: Ki (nM)

Example entries begin here.
- compound: "COCCOc1cccc2c1nc(C(=O)Nc1ccc(N3CCOCC3=O)cc1)n2CC(=O)Nc1ccc(Cl)cn1"
  Ki / nM: 14
- compound: "CC(C)N1CCC(NC(=O)c2nc3cc(C(=O)O)ccc3n2CC(=O)Nc2ccc(Cl)cn2)CC1"
  Ki / nM: 22.5
- compound: "CC(C)N1CCC(NC(=O)c2nc3cccnc3n2Cc2cc(-c3ccc(Cl)s3)on2)CC1"
  Ki / nM: 2390
- compound: "COCCOCc1cccc2c1nc(C(=O)NC1CCN(C(C)C)CC1)n2CC(=O)Nc1ccc(Cl)cn1"
  Ki / nM: 12.5
- compound: "COC(=O)c1cccc2nc(C(=O)NC3CCN(C(C)C)CC3)n(Cc3cc(-c4ccc(Cl)s4)on3)c12 [Example 11b]"
  Ki / nM: 1

1 = CC(C)N1CCC(NC(=O)c2nc3c(C(=O)N4C(C)CCCC4C)cccc3n2CC(=O)Nc2ccc(Cl)cn2)CC1 (stereo not shown)
2 = COC(=O)c1cccc2c1nc(C(=O)NC1CCN(C(C)C)CC1)n2Cc1cc(-c2ccc(Cl)s2)on1 [Example 11a]
QUERY: Which gives the smaller Ki number: 1 or 2 ? Choose, then provide that item's label.
RESULT: 1
